- methodDescription: Body and organ weights of cynomolgus monkeys (Example 46)
- Format: in vivo
- conditionLabel: day 15
Strand notation (5' to 3'): a small letter for the sugar, then the base; units joined by * are phosphorothioate-linked, units joined directly phosphodiester-linked; [ ] holds rarer units or linkages, { } end groups; capitals alone tell only the bases. e = 2'-O-(2-methoxyethyl) (MOE); [5mC] = 5-methylcytosine; d = 2'-deoxy (DNA)
quantityName: body weight (g)
Your answer is read as g, so omit the unit and give the number.

Sample records with body weight:
Problem: Recall and state the measured body weight for ISIS 416850: MOE gapmer, nucleobases 1275 to 1318 of SEQ ID NO: 1 (Table 8) (antisense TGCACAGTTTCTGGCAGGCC; MOE gapmer, wing and gap sizes not given here) .
Solution: 2147

Problem: Recall and state the measured body weight for ISIS 449711: 3-8-3, 4-8-4, 2-10-2, 3-10-3 or 4-10-4 MOE microwalk gapmer (Table 46) (antisense eA*e[5mC]*dA*dG*dT*dT*dT*d[5mC]*dT*dG*dG*d[5mC]*eA*eG) .
Solution: 2103

Problem: Recall and state the measured body weight for ISIS 449710: 3-8-3, 4-8-4, 2-10-2, 3-10-3 or 4-10-4 MOE microwalk gapmer (Table 46) (antisense e[5mC]*eA*e[5mC]*dA*dG*dT*dT*dT*d[5mC]*dT*dG*dG*d[5mC]*eA*eG*eG) .
Solution: 2145

Below: the item to evaluate.
Problem: Recall and state the measured body weight for ISIS 449709: 3-8-3, 4-8-4, 2-10-2, 3-10-3 or 4-10-4 MOE microwalk gapmer (Table 46) (antisense eG*e[5mC]*eA*e[5mC]*dA*dG*dT*dT*dT*d[5mC]*dT*dG*dG*d[5mC]*eA*eG*eG*e[5mC]) .
Solution: 2085
